So I've got a bunch of compounds here, and I need their formation rate values.
system: MDA-MB-231 cells; conditions: MDA-MB-231, 100 nM E1, 48 h
Answers are plain numbers, in fmol/10^6 cells/h.

Some solved cases for reference:
Lookup: Name the recorded formation rate of the item C[C@]12CC[C@@H]3c4ccc(OS(=O)(=O)O)cc4CC[C@H]3[C@@H]1CCC2=O [E1-S, estrone-3-O-sulfate] in your answer.
Found: 0.49

Lookup: Name the recorded formation rate of the item C[C@]12CC[C@@H]3c4ccc(O)cc4CC[C@H]3[C@@H]1CC[C@@H]2O [E2, 17β-estradiol] in your answer.
Found: 258.9

We now examine a further compound.
Lookup: Name the recorded formation rate of the item C[C@]12CC[C@@H]3c4ccc(OS(=O)(=O)O)cc4CC[C@H]3[C@@H]1CC[C@@H]2O [E2-S, 17β-estradiol-3-O-sulfate] in your answer.
Found: 0.12
